Assay: NCI Yeast Anticancer Drug Screen. Data for the wt1 strain (AID 149);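 also: 0% = growth of vehicle-treated wt1 cultures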
Conditions: S. cerevisiae wt1 strain (SPY 50644) growth inhibition; at 3.7 µM; active compounds read high
The panel holds about 79,000 compounds, 15% with a hit somewhere; the sample as a whole holds those more often.
Below, each entry is listed alongside its reported growth inhibition.

{"MOLECULE": "CC(C)C1=CC2=C[C@H](O)[C@H]3C(C)(C)CCC[C@]3(C)C2=C(O)C1=O", "UNIT_TEXT": "%", "growth inhibition": 13}
{"MOLECULE": "Cc1ccc2[nH]c3c(C)c4cc[n+](C)cc4c(C)c3c2c1", "UNIT_TEXT": "%", "growth inhibition": -12}
{"MOLECULE": "O=C([O][Sn]([O]C(=O)c1ccccc1)([c]1ccccc1)[c]1ccccc1)c1ccccc1", "UNIT_TEXT": "%", "growth inhibition": 4}
{"MOLECULE": "CC1(Cl)CC(O)C2(CC1Br)C1(C)OC1C1OC1(Br)C2(C)C (centres undefined)", "UNIT_TEXT": "%", "growth inhibition": -20}
